Structures can show the parent of a compound that is named as a salt.
Ki, 5-hydroxytryptamine receptor 7 (Homo sapiens, UniProt P34969): measured values
Response body: numeric value in nM, unit text excluded.

Worked examples follow.
>  <molecule>
O=c1ccc2ccc(OCCCCN3CCN(c4cccc5sccc45)CC3)cc2[nH]1

>  <unit_descriptor>
nM

>  <Ki>
30.4

$$$$
>  <molecule>
C[C@@H](NCCCc1cccc(C(F)(F)F)c1)c1cccc2ccccc12 [CINACALCET HYDROCHLORIDE]

>  <unit_descriptor>
nM

>  <Ki>
571

$$$$
>  <molecule>
NCCc1cn(S(=O)(=O)c2c(Cl)nc3sccn23)c2ccccc12

>  <unit_descriptor>
nM

>  <Ki>
1430

$$$$

IN: Could you please provide reported Ki for CN1CCC(=C2c3ccccc3CC(=O)c3sccc32)CC1 [KETOTIFEN FUMARATE] ? Thanks!
OUT: 407

IN: Find the measured Ki of CN1C2CCC1CC(OC(c1ccc(F)cc1)c1ccc(F)cc1)C2 (stereo not drawn) and report it.
OUT: 126
